Origin of measurements: PubChem BioAssay (NCI)

Tested on: SF-268 CNS
Experiment: NCI-60 one-dose screen, 48 h
Conditions: 10 µM unless noted
Method: Cells are grown in 96 well plates and exposed to the test compound for 48 hours. Compounds are tested at a single concentration, which is 10^-5 M for most compounds. The reported endpoint is percent growth (GI% or GIPRCNT), where numbers from 0 - 100% represent growth inhibition, and numbers from -100% - 0 represent cell death. For example, a value of 40 represents 60% growth inhibition. A value of 0 means no net growth occurred over the course of the experiment. […]
The panel holds about 83,000 compounds, 20% with a hit somewhere; the sample as a whole holds those more often. Calls of active or inactive are those of the source. The calls were made as follows: active = growth percent below 10; inactive = the rest.
Outcomes: 1 = active, -1 = inactive

N=C(N)c1ccc(-c2ccc(-c3cc(Cl)cc(Cl)c3)s2)s1 | 1
COc1ccccc1/C=C/C(=O)Nc1ccc(F)cc1 | -1
CCOC(=O)c1ccc[nH]1 | -1
O=C(Nc1cc(Cl)ccc1O)c1ccccc1Nc1ccnc(C(F)(F)F)c1 | -1
CN(C)CCC(CCN(C)C)(C(=O)O)c1ccccc1 | -1
CCCCCc1ccc(S(=O)(=O)Nc2cc(-c3csc(NC(C)=O)n3)ccc2N2CCN(C)CC2)cc1 | -1
Cc1cc(O)cc(-c2nn(C)cc2-c2cc(N3CCOCC3)nc(-c3cccnc3)n2)c1 | -1
C=C1C(=O)O[C@H]2[C@H]1CC/C(COC(=O)NCc1ccc(Cn3c(=O)sn(-c4ccc(I)cc4)c3=O)cc1)=C\CC[C@@]1(C)O[C@@H]21 | -1
CCOC(=O)CNC1=C(Cl)C(=O)N(Cc2ccc(Cl)cc2)C1=O | -1
CC1(C)CC[C@]2(CO)CC[C@]3(C)[C@](O)([C@H](O)C[C@@H]4[C@@]5(C)CCCNC(C)(C)[C@@H]5CC[C@]43C)[C@@H]2C1 | -1
N#Cc1c(-c2ccccc2)nc2c(c(-c3ccccc3)nn2-c2ccccc2)c1-c1ccc(N2CCCCC2)cc1 | -1
N#Cc1c(-c2ccc(Cl)cc2)nc(NN=Cc2ccc[nH]2)nc1N1CCOCC1 | -1
N#Cc1c(-c2ccccc2)cc(-c2ccccc2)n(CCCCC(=O)NO)c1=O | -1
c1cc(OCCN2CCCC2)ccc1CNc1ccc2nc(CCC3CCCCC3)[nH]c2c1 | -1
N#Cc1ccc(/C=C/c2cn(-c3ccccc3)nc2-c2cccc([N+](=O)[O-])c2)cc1 | -1
C[C@@H]1NC(=O)[C@H](Cc2ccccc2)N(Cc2cccnc2)C1=O | -1
CCOc1ccc(/C=C/C(=O)c2cccc(OCCCOc3cccc(C(=O)/C=C/c4ccc(OCC)cc4)c3)c2)cc1 | -1
Cc1ncc(C(=O)Nc2ccc(CN3CCN(C)CC3)c(C(F)(F)F)c2)cc1C#Cc1cnc(N)c2ccc(C#N)cc12 | -1
CNC(=O)Nc1ccc(-c2ccc3ncnc(Nc4cccc(Cl)c4)c3c2)cc1 | -1
COc1ccc(C2[C@@H](Cl)C(=O)N2c2cc(OC)c(OC)c(OC)c2)cc1Cl (some centres undefined) | -1
COc1cc2c(cc1OCCCN1CCN(C(=S)SCCC(C#N)(c3ccccc3)c3ccccc3)CC1)N=C[C@@H]1CCCN1C2=O | 1
NS(=O)(=O)c1ccc(C(=O)NN2C(=O)c3ccccc3C2=O)cc1 | -1
CC(=O)Nc1sc2c(c1-c1nc3ccccc3s1)CNC2 | -1
COc1cc(/C=N/NC(=O)c2ccc(-n3cc(-c4ccccc4)nn3)cc2)cc(OC)c1OC | -1
ClCCn1cnc2c(SCc3ccccc3)ncnc21 | -1
Nc1ccc(-c2ccncc2)cc1NC(=O)N1CCCC1 | -1
N#CSc1c[nH]c2ccc(/C=C/C(=O)/C=C(O)/C=C/c3ccc4[nH]cc(SC#N)c4c3)cc12 | -1
Cc1c2ncccc2nc2[nH]c3ccc(OCCN(C)C)cc3c12 | -1
OC1CSSC1Cn1cnc2c(Nc3ccc(OCc4cccc(F)c4)c(Cl)c3)ncnc21 (centres undefined) | 1
N#CC1=C(N)Oc2c(sc3c(F)cccc23)C1c1ccc([N+](=O)[O-])cc1 (centres undefined) | 1
CCN1CCN(CCNc2nccc(-c3c(-c4ccc(F)c(O)c4)nc4occn34)n2)S1(=O)=O | -1
COCCn1cc(-c2csc(-c3c[nH]c4ccc(F)cc34)n2)c2cccnc21 | -1
C=C1SC(=Nc2ccccc2Cl)N(C(=O)c2sc3ccccc3c2Cl)C1(C)C | -1
COc1cc2c(cc1-c1c(C)noc1C)ncc1nc(CN3CCOCC3)n([C@H](C)COC(F)F)c12 | -1
COc1ccc2c(c1)oc1c(C)c3c(c(C)c12)C(=O)N(CCOS(C)(=O)=O)C3=O | -1
Cc1cc2oc(/C=C/c3ccccc3)cc(=O)c2c(C)c1Cl | -1
COc1cc(/C=C/C(=O)c2cc(OC)c(OC)c(OC)c2)ccc1Oc1nc2c(c(=O)n(C)c(=O)n2C)n1C | -1
COc1cc(/C=C2\C(=O)N(CCCOc3cc(O)c4c(=O)cc(-c5ccccc5)oc4c3)c3ccccc32)cc(OC)c1O | -1
Cc1c2cnccc2c(C)c2c1c1cc(CO)ccc1n2C | 1
